Data origin: ChEMBL document CHEMBL2321734

# System: Measles morbillivirus
# PROTOCOL NOTES: Antiviral activity against wild type Measles virus mWTFb infected in simian B95a cells assessed as virus-induced cytopathogenicity incubated for 30 mins prior to inoculation measured after 3 days by phase contrast microscopy
# Assay type: functional, organism-based
QUANTITY: IC50 (µM)
Please give a number only; it is taken to be in µM.

Prompt: IC50 lookup needed for NC(=O)c1ncn([C@@H]2O[C@H](CO)[C@@H](O)[C@H]2O)n1 , thanks.
Completion: 1160

Prompt: IC50 lookup needed for COC[C@H]1OC(=O)c2coc3c2[C@@]1(C)C1=C(C3=O)[C@@H]2CCC(=O)[C@@]2(C)C[C@H]1OC(C)=O , thanks.
Completion: 75

----------
# PROTOCOL NOTES: Cytotoxicity against african green monkey BSC1 cells assessed as ATP levels […] by CellTitre-Glo Luminescent Cell Viability assay
# Assay type: cell-based, BSC-1
# DETAILS: chlorocebus aethiops
QUANTITY: CC50 at 96 h (µM)
Please give a number only; it is taken to be in µM.

Prompt: CC50 at 96 h lookup needed for CCCOCCCCCCCCCc1cc2cn([C@@H]3CC[C@H](CO)O3)c(=O)nc2o1 , thanks.
Completion: 89.1

Prompt: CC50 at 96 h lookup needed for CCOCCCCCCCCCc1cc2cn([C@@H]3CC[C@H](CO)O3)c(=O)nc2o1 , thanks.
Completion: 79.4

Prompt: CC50 at 96 h lookup needed for CCCCCCOCCCCCCCCCc1cc2cn([C@@H]3CC[C@H](CO)O3)c(=O)nc2o1 , thanks.
Completion: 74.1

----------
# Tested on: Vaccinia virus
# PROTOCOL NOTES: Antiviral activity against Vaccinia virus WR expressing luciferase reporter virus v3 infected in rabbit RK13 cells assessed as inhibition of early stages of VACV replication at 10 uM incubated for 30 mins prior to inoculation measured after 2 hrs by luciferase reporter gene assay relative to control
# Assay type: functional
# DETAILS: Orthopoxvirus vaccinia, RK-13
Tag: MET if measured inhibition at 10 µM is not below 70%, NOT MET if it is.

Prompt: Given the entry CC(C)COCCCCCCCCCc1cc2cn([C@@H]3CC[C@H](CO)O3)c(=O)nc2o1 , answer whether its inhibition at 10 µM meets or surpasses 70%.
Completion: NOT MET

Prompt: Given the entry CCCCCCCCCc1cc2cn([C@@H]3CC[C@H](CO)O3)c(=O)nc2o1 , answer whether its inhibition at 10 µM meets or surpasses 70%.
Completion: NOT MET

Prompt: Given the entry COCCCCCCCCCCCCCc1cc2cn([C@@H]3CC[C@H](CO)O3)c(=O)nc2o1 , answer whether its inhibition at 10 µM meets or surpasses 70%.
Completion: NOT MET

Prompt: Given the entry Nc1ccn(C[C@@H](CO)OCP(=O)(O)O)c(=O)n1 , answer whether its inhibition at 10 µM meets or surpasses 70%.
Completion: MET

Prompt: Given the entry CCCCCc1ccc(-c2cc3cn([C@@H]4CC[C@H](CO)O4)c(=O)nc3o2)cc1 , answer whether its inhibition at 10 µM meets or surpasses 70%.
Completion: MET

----------
# System: Vaccinia virus
# PROTOCOL NOTES: Antiviral activity against Vaccinia virus WR expressing luciferase reporter virus v3 infected in rabbit RK13 cells assessed as inhibition of early stages of VACV replication at 10 uM incubated for 30 mins prior to inoculation measured after 2 hrs by luciferase reporter gene assay relative to control
# Format: functional
# DETAILS: Orthopoxvirus vaccinia, RK-13
Please go through the items and note down their inhibition at 10 µM.
Please give a number only; it is taken to be in %.

Prompt: inhibition at 10 µM lookup needed for CCCCOCCCCCCCCCc1cc2cn([C@@H]3CC[C@H](CO)O3)c(=O)nc2o1 , thanks.
Completion: 27.5

Prompt: inhibition at 10 µM lookup needed for CCCCCCOCCCCCCCCc1cc2cn([C@@H]3CC[C@H](CO)O3)c(=O)nc2o1 , thanks.
Completion: 37.2

Prompt: inhibition at 10 µM lookup needed for CCCCCCc1cc2cn([C@@H]3CC[C@H](CO)O3)c(=O)nc2o1 , thanks.
Completion: 70.7

Prompt: inhibition at 10 µM lookup needed for CCCCCCOCCCCCCCCCc1cc2cn([C@@H]3CC[C@H](CO)O3)c(=O)nc2o1 , thanks.
Completion: 35.7

Prompt: inhibition at 10 µM lookup needed for CCCCc1ccc(-c2cc3cn([C@@H]4CC[C@H](CO)O4)c(=O)nc3o2)cc1 , thanks.
Completion: 43.7

Prompt: inhibition at 10 µM lookup needed for CCCCCOCCCCCCCCCc1cc2cn([C@@H]3CC[C@H](CO)O3)c(=O)nc2o1 , thanks.
Completion: 27.7

Prompt: inhibition at 10 µM lookup needed for CCCCCCCCc1cc2cn([C@@H]3CC[C@H](CO)O3)c(=O)nc2o1 , thanks.
Completion: 41.9

Prompt: inhibition at 10 µM lookup needed for CCCCCCCCCCCCc1cc2cn([C@@H]3CC[C@H](CO)O3)c(=O)nc2o1 , thanks.
Completion: 96.4

Prompt: inhibition at 10 µM lookup needed for CCOCCCCCCCCCc1cc2cn([C@@H]3CC[C@H](CO)O3)c(=O)nc2o1 , thanks.
Completion: 79.9

Prompt: inhibition at 10 µM lookup needed for CCCCCCCCCCCCCOCc1cc2cn([C@@H]3CC[C@H](CO)O3)c(=O)nc2o1 , thanks.
Completion: 43.9

----------
# System: Vaccinia virus
# PROTOCOL NOTES: Antiviral activity against Vaccinia virus WR expressing luciferase reporter virus v3 infected in rabbit RK13 cells assessed as inhibition of early stages of VACV replication at 10 uM incubated for 30 mins prior to inoculation measured after 2 hrs by luciferase reporter gene assay relative to control
# Format: functional
# DETAILS: Orthopoxvirus vaccinia, RK-13
Tag: yes (1) if measured inhibition at 10 µM is not below 50%, no (0) if it is.

Prompt: Given the entry CCCCCCCc1cc2cn([C@@H]3CC[C@H](CO)O3)c(=O)nc2o1 , answer whether its inhibition at 10 µM meets or surpasses 50%.
Completion: no (0)

Prompt: Given the entry CC(C)OCCCCCCCCCc1cc2cn([C@@H]3CC[C@H](CO)O3)c(=O)nc2o1 , answer whether its inhibition at 10 µM meets or surpasses 50%.
Completion: yes (1)

Prompt: Given the entry CCCCCCCCCCOCCCCc1cc2cn([C@@H]3CC[C@H](CO)O3)c(=O)nc2o1 , answer whether its inhibition at 10 µM meets or surpasses 50%.
Completion: no (0)

Prompt: Given the entry CCCOCCCCCCCCCc1cc2cn([C@@H]3CC[C@H](CO)O3)c(=O)nc2o1 , answer whether its inhibition at 10 µM meets or surpasses 50%.
Completion: no (0)

Prompt: Given the entry CCCCCCCCCCc1cc2cn([C@@H]3CC[C@H](CO)O3)c(=O)nc2o1 , answer whether its inhibition at 10 µM meets or surpasses 50%.
Completion: no (0)

----------
Please go through the items and note down their CC50 at 96 h.
# PROTOCOL NOTES: Cytotoxicity against african green monkey BSC1 cells assessed as ATP levels […] by CellTitre-Glo Luminescent Cell Viability assay
# Type: cell-based, BSC-1
# DETAILS: chlorocebus aethiops

Prompt: CC50 at 96 h lookup needed for CCCCOCCCCCCCCCc1cc2cn([C@@H]3CC[C@H](CO)O3)c(=O)nc2o1 , thanks.
Completion: > 100 µM

Prompt: CC50 at 96 h lookup needed for CCCCCOCCCCCCCCCc1cc2cn([C@@H]3CC[C@H](CO)O3)c(=O)nc2o1 , thanks.
Completion: > 100 µM

Prompt: CC50 at 96 h lookup needed for Nc1ccn(C[C@@H](CO)OCP(=O)(O)O)c(=O)n1 , thanks.
Completion: > 100 µM
